Recorded AUC(0-inf) for the following compounds
# ASSAY_NOTES: Plasma and brain drug concentration after oral administration (HPLC-MS/MS)
# Format: in vivo
# CONDITION_DETAILS: ICR mouse, oral 10 mg/kg, plasma; read-out: area under the plasma concentration v. time curve (AUCinf)
Note: unit ng·h/mL is implicit; provide only the numeric part.

COCCOCc1cc(NC2CCCC2)c2[nH]c(-c3ccccc3)cc2c1 [Example 2] = 5420

Lab note: next compound to report on.
input: What does the record list as AUC(0-inf) for OCc1cc(NC2CCCC2)c2[nH]c(-c3ccccc3)cc2c1 [Comparative Example, reference compound] ?
output: 5460

Source: patent US20250122155A1
